- Tested on: CCRF-CEM
- experimental_details: NCI tumour cell line growth inhibition, 48 h
Calls of active or inactive are those of the source. No stated cut-off is given here; in the data, active = GI50 up to about 1.1 µM and inactive = higher.
readout_type: GI50

Completed entries (count: 5):
molecule	readout_type	test_result
CCOC(=O)C(=CNC(=S)Nc1c(CC)cccc1CC)C(=O)OCC	GI50	> 100 µM (inactive)
CC1CC2=C(S(=O)(=O)c3ccccc3)CC(S(=O)(=O)c3ccccc3)(S(=O)(=O)c3ccccc3)CC21 (stereo not drawn)	GI50	27.4 µM (inactive)
CC1OC(O[C@H]2/C=C/C=C/C=C/C=C/C=C/C=C/C=C/[C@H](C)[C@@H](O)[C@@H](C)[C@H](C)OC(=O)C[C@H](O)C[C@H](O)CC[C@@H](O)[C@H](O)C[C@H](O)C[C@]3(O)C[C@H](O)[C@@H](C(=O)O)[C@H](C2)O3)C(O)C(N)C1O (stereo partly drawn)	GI50	6.15 µM (inactive)
Cn1cc2c(=O)n3ncn(-c4ccc(Br)cc4)c3nc2n1	GI50	> 100 µM (inactive)
O=C1Nc2ccc(Cl)cc2/C1=C\c1c(Cl)nc2sccn12	GI50	10.6 µM (inactive)

Quick note, GI50 for `CCOC(=O)C#Cc1ccc(C#CC(=O)OCC)cc1` landed at 1.66 µM (inactive)

Quick note, GI50 for `O=C(c1ccc(Cl)cc1)N(C(=S)OCCOc1ccccc1)c1ccccc1` landed at 13.7 µM (inactive)

Quick note, GI50 for `O=S(=O)(c1ccc(-c2nnc(-c3ccc(F)cc3)o2)cc1)c1ccc(-c2nnc(-c3ccc(F)cc3)o2)cc1` landed at > 100 µM (inactive)

###

- Test system: K562
- experimental_details: NCI tumour cell line growth inhibition, 48 h
Active and inactive are the calls of the source. Cut-off read from the data, not from the text of the source: active = GI50 up to about 1.1 µM and inactive = higher.
readout_type: GI50

Completed entries (count: 2):
compound	readout_type	test_result
COC(=O)C(CCCCN)NC(=O)C(CCCCN)NC(=O)C(CCCCN)NC(C)=O.Cc1ccc(C(=O)Nc2ccc(S(=O)(=O)O)c3cc(S(=O)(=O)O)cc(S(=O)(=O)O)c23)cc1NC(=O)c1cccc(NC(=O)Nc2cccc(C(=O)Nc3cc(C(=O)Nc4ccc(S(=O)(=O)O)c5cc(S(=O)(=O)O)cc(S(=O)(=O)O)c45)ccc3C)c2)c1	GI50	> 50 µM (inactive)
CCOC(=O)c1c(-c2ccc(OC)cc2)c(C#N)c(=S)n(C2OC(COC(C)=O)C(OC(C)=O)C(OC(C)=O)C2OC(C)=O)c1-c1ccccc1 (stereo not drawn)	GI50	> 100 µM (inactive)

We now examine a further compound.
Quick note, GI50 for `CCc1n[nH]c(=O)n1N1C(=O)CCC1=O` landed at > 100 µM (inactive)

###

Reported GI50 is given for each of the following molecules.
- Tested on: SR
- experimental_details: NCI tumour cell line growth inhibition, 48 h
The source made the active and inactive calls. Cut-off read from the data, not from the text of the source: active = GI50 up to about 1.1 µM and inactive = higher.

Completed entries (count: 2):
> print(dat)
                           molecule  study.target          test.result
1  CCOC(=O)C1=C(N2CCCC2)NC(=O)CC1=O            SR  > 100 µM (inactive)
2    CCOC(=O)/C=C/CC(C)(C)CCOC(C)=O            SR   > 10 µM (inactive)

Quick note, GI50 for `COc1cc(C)cc2c1C(=O)C(Br)=CC2=O` landed at 4.57 µM (inactive)

Quick note, GI50 for CC(SC(=S)N1CCOCC1)c1cc2oc(=O)n(C)c2cc1Cl (stereo not given) landed at 30.4 µM (inactive)

Quick note, GI50 for COc1ccc(-c2coc3cc(O)ccc3c2=O)cc1 [FORMONONETIN] landed at > 100 µM (inactive)

Quick note, GI50 for C=CCC12CCC(=O)[C@@]1(C)CC=C(O)C2=O (stereo not given in full) landed at > 100 µM (inactive)

Quick note, GI50 for COC(=O)C1=C(O)C(C(=O)OC)[C@]2(O)[C@H](C(=O)OC)[C@H]1C[C@@H](c1ccc(OC)c(OC)c1)[C@H]2C(=O)OC (stereo not given in full) landed at 14 µM (inactive)

Quick note, GI50 for `CCOC(=O)CC[C@H](NC(=O)c1ccc(CNc2nc3cc(C(F)(F)F)ccc3nc2C(=O)OCC)cc1)C(=O)OCC` landed at > 100 µM (inactive)

Quick note, GI50 for `CCOC(=O)C(=CN1CCNC1=S)C(=O)OCC` landed at > 100 µM (inactive)

Quick note, GI50 for Cc1ccc(C2CC(c3cccc([N+](=O)[O-])c3)=Nc3ccccc3S2)cc1 (stereo not given) landed at 25.8 µM (inactive)

These entries and their values trace back to ChEMBL document CHEMBL1201862.
